// reported apparent KD of MS2 coat protein for each item listed
System: MS2 coat protein
Experiment: apparent KD of MS2 coat protein; designed switch direction (-1 OFF switch, 1 ON switch): -1; higher = weaker reporter binding
Details: input ligand: FMN 200 uM
Express it in nM; write the number only.

Check out these entries, answers already filled in.
[[record]]
entry_sequence = "UUUUACUCAGGAUAUACAUGAGGAUCACCCAUGUAUAUUGAAGAUAAUACAUGGGAAUGUAGAAGGGAGCUCAU [Omei Ex3 Pseudoloop 18] (Eterna round: R97, puzzle: Exclusion 3)"
measured_endpoint = "apparent KD of MS2 coat protein"
meas_value = 190

[[record]]
entry_sequence = "GCAGAAAGUGUAGGAUAUCUAAUAAAGCGGAAACGCAAGACAUGAGGAUCACCCAUGUGUCCGGAAGAGAAGGGCAAAAGCUGC [EXNG2 V2 c] (Eterna round: R96, puzzle: Exclusion NG 2)"
measured_endpoint = "apparent KD of MS2 coat protein"
meas_value = 26.6

[[record]]
entry_sequence = "AGUGUGUCAGGAUAUUCUAUUAAUUACAUGAGGAUCACCCAUGUGAAUGGACAAGGGUGUGAAGAAGGGACGUGCG [Omei Ex5 A17e] (Eterna round: R97, puzzle: Exclusion 5)"
measured_endpoint = "apparent KD of MS2 coat protein"
meas_value = 211


Query: Which apparent KD of MS2 coat protein value belongs to ACUUACUGAGGAUAUACAUAGAUUUACAUGAGGAUCACCCAUGUUCCUCUAUGUAUAAAUGUAGAAGGCAGAAGUU [Mat - Exclusion 5 - JL Mod - D56] (Eterna round: R97, puzzle: Exclusion 5) ?
Reply: 107

Query: Which apparent KD of MS2 coat protein value belongs to GAUCACUGAGGAUAUACACAGAUACAAAGUAUCUGACGGUGACAUGAGGAUCACCCAUGUAGAAGGCAGAGGUC [Omei Ex2 B2] (Eterna round: R97, puzzle: Exclusion 2) ?
Reply: 360

---

// reported apparent KD of MS2 coat protein for each item listed
Tested on: MS2 coat protein
Assay: apparent KD of MS2 coat protein; designed switch direction (-1 OFF switch, 1 ON switch): 1; higher = weaker reporter binding
Conditions: input ligand: FMN 200 uM
Express it in µM; write the number only.

Check out these entries, answers already filled in.
[[record]]
entry_sequence = "AGAAAUCAACGCGCACAUGAGGAUCACCCAUGUGCUCAAGCACAGGAUAUCGGCACAAGACAGGCCGAGAAGGGUGGAGCACGA [Eternabot solution 3] (Eterna round: R96, puzzle: Same State NG 3)"
meas_value = 0.0147

[[record]]
entry_sequence = "GGACGUCGAUAAUAUAAUCUCACAUGAGGAUCACCCAUGUCACAGGAUAUGGAUCCUAAUUGGAUCCAGAAGGGUGCGACGUCC [Fiskers NG3ss - 35] (Eterna round: R96, puzzle: Same State NG 3)"
meas_value = 0.0733

[[record]]
entry_sequence = "AUUGCUAGCGCAGGAUAUGAUGCGAAAAUUGCGUCAGAAGGGUGUACUCUCUCAUUGCGGGAGGACAUGAGGAUCACCCAUGUC [SameState NG1 #83] (Eterna round: R96, puzzle: Same State NG 1)"
meas_value = 0.0666


Query: Give apparent KD of MS2 coat protein (MS2 coat protein) of the following sequence: GCUAGAAUUAAAGCCAACAUGAGGAUCACCCAUGUAUGUUGGCAGGAUAUCGUUUGCUUUGCAAACGAGAAGGGCCAAACUAGC [JL SSNG3 1.01] (Eterna round: R96, puzzle: Same State NG 3)
Reply: 0.0206

Query: Give apparent KD of MS2 coat protein (MS2 coat protein) of the following sequence: UUGAAGAAUUAAGGAUAUUGAAUACAUAUGUUUAACAUGAGGAUCACCCAUGUGGGUUGCGGUGUCGAGAAGGUAAAUUACUAG [JL SSNG2 1.50] (Eterna round: R96, puzzle: Same State NG 2)
Reply: 0.256

Sourced from the supplement of paper PMC9170038
